system: Wolbachia pipientis; assay: Anti-Wolbachia Cell-Based Screen; format: functional; design: scale not given: in the data most compounds retested in dose-response had high values; conditions: 5 µM
The whole screen tested about 48,000 compounds, of which about 13,000 (27%) showed an effect of 50% or more. Some of the results follow.
Documented Percent Effect across a set of compounds

[
  {
    "COMPOUND": "Cc1n[nH]c(C)c1CNCC(O)c1ccc(F)c(F)c1 (stereo unspecified)",
    "MEASUREMENT UNITS": "%",
    "Percent Effect": -7.93
  },
  {
    "COMPOUND": "Cn1ccnc1SCC(=O)NCCC1CCCO1 (stereo unspecified)",
    "MEASUREMENT UNITS": "%",
    "Percent Effect": 1.622
  },
  {
    "COMPOUND": "Cc1cnc(C(=O)N2CCCn3c(nc(CN(C)C)cc3=O)C2)cn1.O=C(O)C(F)(F)F",
    "MEASUREMENT UNITS": "%",
    "Percent Effect": -7.099
  },
  {
    "COMPOUND": "Cc1nnc([C@@]23CCO[C@@H]2CCN(Cc2scnc2C)C3)o1",
    "MEASUREMENT UNITS": "%",
    "Percent Effect": 102.2
  },
  {
    "COMPOUND": "Cc1noc([C@@]23CCO[C@@H]2CCN(CC2CCOCC2)C3)n1.O=C(O)C(F)(F)F",
    "MEASUREMENT UNITS": "%",
    "Percent Effect": -22.2
  },
  {
    "COMPOUND": "Cc1nnc([C@@]23CCO[C@@H]2CCN(Cc2nccs2)C3)o1",
    "MEASUREMENT UNITS": "%",
    "Percent Effect": 93.98
  },
  {
    "COMPOUND": "CO[C@@H]1CCN(Cc2nccn2C)[C@H]1Cc1cccnc1.O=C(O)C(F)(F)F.O=C(O)C(F)(F)F",
    "MEASUREMENT UNITS": "%",
    "Percent Effect": 5.954
  },
  {
    "COMPOUND": "CO[C@@H]1CCN(S(=O)(=O)c2cccs2)[C@H]1Cc1cccnc1.O=C(O)C(F)(F)F",
    "MEASUREMENT UNITS": "%",
    "Percent Effect": 5.775
  },
  {
    "COMPOUND": "Cc1nnc([C@]23COC[C@H]2CN(Cc2nccs2)C3)o1.O=C(O)C(F)(F)F",
    "MEASUREMENT UNITS": "%",
    "Percent Effect": -6.391
  },
  {
    "COMPOUND": "CO[C@@H]1CCN(C(=O)Cc2cccc(F)c2)[C@H]1Cc1cccnc1.O=C(O)C(F)(F)F",
    "MEASUREMENT UNITS": "%",
    "Percent Effect": 114.6
  },
  {
    "COMPOUND": "COc1ncccc1C(=O)N1CCc2c(ncnc2N2CCOCC2)C1",
    "MEASUREMENT UNITS": "%",
    "Percent Effect": 105
  },
  {
    "COMPOUND": "CN1CCN(Cc2cnc3n2CCN(C(=O)c2cnccn2)C3)CC1",
    "MEASUREMENT UNITS": "%",
    "Percent Effect": -7.558
  },
  {
    "COMPOUND": "CC(C)N(C)Cc1cc(=O)n2c(n1)CN(C(=O)c1cnccn1)CCC2",
    "MEASUREMENT UNITS": "%",
    "Percent Effect": 114.9
  },
  {
    "COMPOUND": "O=C(Cc1ccsc1)NCCc1ccoc1",
    "MEASUREMENT UNITS": "%",
    "Percent Effect": -2.885
  },
  {
    "COMPOUND": "Cc1ncsc1CN1CC[C@H]2OCC[C@@]2(C(=O)N2CCCC2)C1",
    "MEASUREMENT UNITS": "%",
    "Percent Effect": -2.591
  },
  {
    "COMPOUND": "CCS(=O)(=O)N1CC[C@H]2OCC[C@@]2(c2nnc(C)o2)C1",
    "MEASUREMENT UNITS": "%",
    "Percent Effect": 3.137
  },
  {
    "COMPOUND": "Cc1nc2n(n1)CC(NCCCc1nc(-c3cccs3)no1)CC2 (stereo unspecified)",
    "MEASUREMENT UNITS": "%",
    "Percent Effect": -18.09
  },
  {
    "COMPOUND": "CC(C)N(C)Cc1noc2c1CN(C(=O)c1ccsc1)CC2",
    "MEASUREMENT UNITS": "%",
    "Percent Effect": 5.959
  },
  {
    "COMPOUND": "O=C(c1ncccc1O)N1CCc2c(ncnc2N2CCOCC2)C1",
    "MEASUREMENT UNITS": "%",
    "Percent Effect": -10.43
  },
  {
    "COMPOUND": "CC(C)N(C)Cc1cc(=O)n2c(n1)CN(C(=O)c1ccnnc1)CCC2",
    "MEASUREMENT UNITS": "%",
    "Percent Effect": 96.43
  },
  {
    "COMPOUND": "Cc1noc([C@@]23CCO[C@@H]2CCN(Cc2scnc2C)C3)n1.O=C(O)C(F)(F)F",
    "MEASUREMENT UNITS": "%",
    "Percent Effect": 105.3
  }
]
